assay: qHTS of pediatric cancer cell lines to identify multiple opportunities for drug repurposing: Confirmatory screen for SJ-GBM2 cells (AID 1347116); settings: SJ-GBM2 glioblastoma cells, viability; series mostly up to 45.9 µM;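 also: 48 hour compound exposure; nearly all actives have a fitted effect of over 60% in size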
Records with an inconclusive call do not appear. The source made the active and inactive calls. Calls follow the shape of the dose curve; as a rule, active = well fitted cell-killing curve with a large enough effect; inconclusive = small, poorly fitted or top-dose-only effect, or effect the other way; inactive = no such curve, though single readings can be large or run the other way.
Would you mind answering with one of these outcomes? y (active), n (inactive)

> print(dat)
                                   molecule  cat
1   OCCCNc1cc(-c2ccnc(Nc3cccc(Cl)c3)n2)ccn1    y
2  COc1ccc(F)c(F)c1C(=O)c1cnc(NC2CCN(S(C)(=O)=O)CC2)nc1N    y
3  Nc1ccccc1NC(=O)c1ccc(CNc2nccc(-c3cccnc3)n2)cc1    y
4  Cc1ccc(C(=O)Nc2cccc(C(F)(F)F)c2)cc1-c1ccc2nc(NCCN3CCOCC3)ncc2c1    y
5  CC[C@@H]1C(=O)N(C)c2cnc(Nc3ccc(C(=O)NC4CCN(C)CC4)cc3OC)nc2N1C1CCCC1    y
6  COc1cccc(-c2ccc(NC(=O)C3=C(C(=O)O)CCC3)c(F)c2)c1    y
7  CCc1c2c(nc3ccc(O)cc13)-c1cc3c(c(=O)n1C2)COC(=O)[C@]3(O)CC    n
8  C[C@@]12O[C@@H](C[C@]1(O)CO)n1c3ccccc3c3c4c(c5c6ccccc6n2c5c31)CNC4=O    y

## Task Dear colleague, could you share the recorded outcome for `C=CCn1c(=O)c2cnc(Nc3ccc(N4CCN(C)CC4)cc3)nc2n1-c1cccc(C(C)(C)O)n1` when you have a moment?
## Result y

## Task Dear colleague, could you share the recorded outcome for `Cc1ccc(C(N)=O)cc1Nc1nccc(-c2cn(C(C)C)c3cnccc23)n1` when you have a moment?
## Result y

## Task Dear colleague, could you share the recorded outcome for `CC=C1NC(=O)[C@H]2CSSCCC=C[C@H](CC(=O)N[C@H](C(C)C)C(=O)N2)OC(=O)[C@H](C(C)C)NC1=O` when you have a moment?
## Result n

## Task Dear colleague, could you share the recorded outcome for `CN1CCN(Cc2ccc(NC(=O)Nc3ccc(Oc4cc(NC(=O)C5CC5)ncn4)cc3)cc2C(F)(F)F)CC1` when you have a moment?
## Result y

## Task Dear colleague, could you share the recorded outcome for `COc1cc2c(Oc3ccc(NC(=O)C4(C(=O)Nc5ccc(F)cc5)CC4)cc3F)ccnc2cc1OCCCN1CCOCC1` when you have a moment?
## Result y

## Task Dear colleague, could you share the recorded outcome for `Cc1nc2cnc3ccc(C#Cc4cccnc4)cc3c2n1-c1ccc(C(C)(C)C#N)cc1` when you have a moment?
## Result y

## Task Dear colleague, could you share the recorded outcome for `Cc1ccc(-c2ncn(-c3ccc(Nc4nccc(-c5cccc(N6CCOCC6)c5)n4)cc3)n2)cn1` when you have a moment?
## Result y

## Task Dear colleague, could you share the recorded outcome for CC[C@@H]1C(=O)N(C)c2cnc(Nc3ccc(C(=O)NC4CCC(N5CCN(CC6CC6)CC5)CC4)cc3OC)nc2N1C(C)C (stereo partly drawn) when you have a moment?
## Result n

## Task Dear colleague, could you share the recorded outcome for `CCS(=O)(=O)c1cccc(-c2cc(C(=O)NC3CCN(C)CC3)c(C)c3[nH]c4ncc(C)cc4c23)c1` when you have a moment?
## Result y

## Task Dear colleague, could you share the recorded outcome for CC(NCc1ccc2c(c1)nc(NC(=O)c1ccc(-c3cn[nH]c3)s1)n2CC(C)(C)O)C(C)(C)C (stereo not drawn) when you have a moment?
## Result y

Every entry's value here was drawn from PubChem BioAssay (NCATS).
